Hey, just so you know, these numbers are from patent US4720493A.

- PROTOCOL_DESCRIPTION: Toxicity
- Format: in vivo, ddY-mice
- RECORDED_CONDITIONS: in vivo

COMPOUND: CCOCC(=O)NCc1ccc(-c2csc(N)n2)s1 [Example 14]
survival of mice, intraperitoneal: All mice survived
//
COMPOUND: Nc1nc(-c2ccc(CN3CCOCC3)s2)cs1 [Example 5]
survival of mice, intraperitoneal: All mice survived
//
COMPOUND: Nc1nc(-c2ccc(CCN3CCN(c4cccc(Cl)c4)CC3)s2)cs1 [Example 55]
survival of mice, intraperitoneal: All mice survived
//
COMPOUND: CC(=O)OCC(=O)NCc1ccc(-c2csc(N)n2)s1 [Example 11]
survival of mice, intraperitoneal: All mice survived
